Hey, just so you know, these numbers are from patent US8088806B2.

# Tested on: HCV replicon
# assay-info: Replicon based assay of HCV replication inhibition (NPT ELISA)
# Assay type: cell-based, Hepatitis C virus
# conditions-used: Hepatitis C virus, replicon based assay of HCV replication inhibition; Table IV; read-out: Activity
readout-type: EC50

Item: COc1ncc(-c2csc(Nc3ccc(OCCCCc4ccc(C)cc4)c(C(F)(F)F)c3)n2)cn1 [compound 829] | EC50: < 1000 nM

Item: CCCCCCCCOc1ccc(Nc2nc(C(=O)CSc3ccccn3)cs2)cc1C(F)(F)F [compound 917] | EC50: 1000 to 10000 nM

====

# Test system: HCV replicon
# assay-info: Replicon based assay of HCV replication inhibition (NPT ELISA)
# Format: cell-based, Hepatitis C virus
# conditions-used: Hepatitis C virus, replicon based assay of HCV replication inhibition; Table IV; read-out: Activity
pEC50: −log10 of the molar value.
readout-type: pEC50

Use these answered entries as a reference point.
INSERT INTO assay_data (compound, system, readout_type, endpoint_value) VALUES
  ('Cc1ccc(CCCCOc2ccc(Nc3nc(-c4cccnc4)c(C)s3)cc2C(F)(F)F)cc1 [compound 845]', 'HCV replicon', 'pEC50', '> 6.00'),
  ('CCCCCCCCOc1ccc(Nc2nc(-c3cccnc3)c(N)s2)cc1C(F)(F)F [compound 923]', 'HCV replicon', 'pEC50', '> 6.00'),
  ('CC(C)(C)OC(=O)Nc1ccc(Nc2nc(-c3cccnc3)cs2)cc1 [compound 895]', 'HCV replicon', 'pEC50', '< 5.00'),
  ('CC(C)c1ccc(Nc2nc(-c3cccnc3)cs2)cc1 [compound 887]', 'HCV replicon', 'pEC50', '5.00 to 6.00'),
  ('COc1cccc(-c2csc(Nc3ccc(OCC4CCCCC4)c(C(F)(F)F)c3)n2)n1 [compound 772]', 'HCV replicon', 'pEC50', '> 6.00');

Item: CCCCCCCCOc1ccc(Nc2nc(-c3cccnc3C(N)=O)cs2)cc1C(F)(F)F [compound 814] | pEC50: 5.00 to 6.00

Item: Fc1ccc(Cn2ccc3cc(Nc4nc(-c5cccnc5)cs4)ccc32)cc1 [compound 870] | pEC50: > 6.00

Item: c1ccc(CCc2ccc(Nc3nc(-c4cccnc4)cs3)cc2)cc1 [compound 757] | pEC50: > 6.00

Item: Fc1cc(Nc2nc(-c3cccnc3)cs2)ccc1OCCCCc1cccs1 [compound 852] | pEC50: > 6.00

====

Listed here are compounds together with their documented EC50.
# Tested on: HCV replicon
# assay-info: Replicon based assay of HCV replication inhibition (NPT ELISA)
# Type: cell-based, Hepatitis C virus
# conditions-used: Hepatitis C virus, replicon based assay of HCV replication inhibition; Table IV; read-out: Activity

INSERT INTO assay_data (smiles_repr, system, endpoint_value) VALUES
  ('CCOC(=O)Cc1ccc(-c2csc(Nc3ccc(OCCCOc4ccccc4)cc3)n2)s1', 'HCV replicon', '1000 to 10000 nM'),
  ('O=C(c1ccccc1)c1cccc(Nc2nc(-c3cccnc3)cs2)c1', 'HCV replicon', '> 10000 nM'),
  ('Cc1noc(NS(=O)(=O)c2ccc(Nc3nc(-c4cccnc4)cs3)cc2)c1C', 'HCV replicon', '> 10000 nM');

The reported EC50 value, HCV replicon, for COC(=O)c1sc(-c2ccccc2)cc1Nc1nc(-c2cccnc2)cs1 reads > 10000 nM

The reported EC50 value, HCV replicon, for CCCCCCCCOc1ccc(Nc2nc(-c3ccc(CN)nc3)cs2)cc1C(F)(F)F reads < 1000 nM

The reported EC50 value, HCV replicon, for Cc1ccc(C#CCCOc2ccc(Nc3nc(-c4cccnc4)cs3)cc2C(F)(F)F)cc1 reads < 1000 nM

The reported EC50 value, HCV replicon, for FC(F)(F)c1cc(Nc2nc(-c3cccnc3)cs2)ccc1OCCCCc1ccccc1 reads < 1000 nM

The reported EC50 value, HCV replicon, for CCCCCCCCSc1ccc(Nc2nc(-c3cnc(OC)nc3)cs2)cc1C(F)(F)F reads < 1000 nM

The reported EC50 value, HCV replicon, for CCCCCCCCOc1ccc(Nc2nc(-c3ccc(OC)nn3)cs2)cc1C(F)(F)F reads < 1000 nM

The reported EC50 value, HCV replicon, for Fc1ccc(CCCCOc2ccc(Nc3nc(-c4cccnc4)cs3)cc2C(F)(F)F)cc1 reads < 1000 nM

The reported EC50 value, HCV replicon, for c1cncc(-c2csc(Nc3nc(CN4CCCCC4)cs3)n2)c1 reads > 10000 nM

====

# Tested on: HCV replicon
# assay-info: Replicon based assay of HCV replication inhibition (NPT ELISA)
# Type: cell-based, Hepatitis C virus
# conditions-used: Hepatitis C virus, replicon based assay of HCV replication inhibition; Table IV; read-out: Activity
readout-type: EC50

INSERT INTO results (compound, endpoint_value) VALUES
  ('CCCCCCCCOc1ccc(Nc2nc(-c3cnc(O)nc3)cs2)cc1C(F)(F)F', '< 1000 nM'),
  ('CCCCCCCCOc1ccc(Nc2nc(-c3cnc(Cl)c(C)c3)cs2)cc1C(F)(F)F', '< 1000 nM'),
  ('CCC(C)c1ccc(Nc2nc(-c3cccnc3)cs2)cc1 (stereo not shown)', '1000 to 10000 nM'),
  ('Fc1ccc(C(F)(F)F)cc1Nc1nc(-c2cccnc2)cs1', '1000 to 10000 nM');

Item: COc1ncc(-c2csc(Nc3ccc4c(ccn4Cc4ccc(F)cc4)c3)n2)cn1 | EC50: 1000 to 10000 nM

Item: CCCCCCCCOc1ccc(Nc2nc(-c3c[nH]nc3C#N)cs2)cc1C(F)(F)F | EC50: < 1000 nM

====

Listed here are compounds together with their documented pEC50.
# System: HCV replicon
# assay-info: Replicon based assay of HCV replication inhibition (NPT ELISA)
# Assay type: cell-based, Hepatitis C virus
# conditions-used: Hepatitis C virus, Huh-7, 72 h, Table III; Huh-7 HCV replicon-containing cells, three days; read-out: Activity
pEC50: −log10 of the molar value.

Use these answered entries as a reference point.
INSERT INTO results (compound, readout_type, endpoint_value) VALUES
  ('CCCCCCCCOc1ccc(Nc2nc(-c3ccc4c(c3)NC(=O)CO4)cs2)cc1C(F)(F)F [compound 584]', 'pEC50', '> 6.00'),
  ('CCCCCCCCN(C)c1ccc(Nc2nc(-c3ccc4c(c3)NC(=O)CO4)cs2)cc1C(F)(F)F [compound 572]', 'pEC50', '5.00 to 6.00'),
  ('CCCCCN(C)c1ccc(Nc2nc(Cc3ccc(OC)cc3)cs2)cc1C(F)(F)F [compound 643]', 'pEC50', '< 5.00');

Item: CCC(CC)Oc1ccc(Nc2nc(-c3cccnc3)cs2)cc1C(F)(F)F [compound 645] | pEC50: > 6.00

Item: CCCCCOc1ccc(Nc2nc(-c3cncc(C(=O)N(C)C)c3)cs2)cc1C(F)(F)F [compound 647] | pEC50: > 6.00

Item: CCCCCCCc1ccc(Nc2nc(-c3ccc(O)c(C(N)=O)c3)cs2)cc1 [compound 557] | pEC50: > 6.00

Item: CCCCCCCCOc1ccc(Nc2nc(-c3ccc(OCC(=O)O)cc3)c(C)s2)cc1C(F)(F)F [compound 586] | pEC50: > 6.00

Item: CCCCCCCCc1ccc(Nc2nc(-c3ccc(Cl)s3)cs2)cc1 [compound 546] | pEC50: > 6.00

Item: CCCCCCCCc1ccc(Nc2nc(-c3ccc(F)cc3)cs2)cc1 [compound 544] | pEC50: > 6.00

====

# System: HCV replicon
# assay-info: Replicon based assay of HCV replication inhibition (NPT ELISA)
# Type: cell-based, Hepatitis C virus
# conditions-used: Hepatitis C virus, replicon based assay of HCV replication inhibition; Table IV; read-out: Activity
pEC50: −log10 of the molar value.
Listed here are compounds together with their documented pEC50.

INSERT INTO measurements (smiles_repr, readout_type, endpoint_value) VALUES
  ('[2H]c1ccc2nc(-c3csc(Nc4ccc(OCC5CCCCC5)c(C(F)(F)F)c4)n3)ccc2n1', 'pEC50', '5.00 to 6.00');

The reported pEC50 value, HCV replicon, for c1ccc(CCCCOc2ccc(Nc3nc(-c4cccnc4)cs3)cc2)cc1 reads > 6.00

The reported pEC50 value, HCV replicon, for c1cncc(-c2csc(Nc3nc4ccccc4[nH]3)n2)c1 reads < 5.00

The reported pEC50 value, HCV replicon, for Cc1sc(Nc2ccc(OCCCc3cccnc3)c(C(F)(F)F)c2)nc1-c1cccnc1 reads < 5.00

====

# Test system: HCV replicon
# assay-info: Replicon based assay of HCV replication inhibition (NPT ELISA)
# Assay type: cell-based, Hepatitis C virus
# conditions-used: Hepatitis C virus, Huh-7, 72 h, Table III; Huh-7 HCV replicon-containing cells, three days; read-out: Activity
pEC50: −log10 of the molar value.
Listed here are compounds together with their documented pEC50.

Use these answered entries as a reference point.
INSERT INTO assay_data (compound, endpoint_value) VALUES
  ('CCCCCCCCN(C)c1ccc(Nc2nc(-c3ccc4[nH]c(=O)oc4c3)cs2)cc1C(F)(F)F [compound 573]', '> 6.00'),
  ('CCCCCCCCOc1ccc(Nc2nc(-c3cnc(OC)nc3OC)cs2)cc1C(F)(F)F [compound 713]', '> 6.00'),
  ('CCCCCOc1ccc(Nc2nc3c(s2)CCc2ncccc2-3)cc1C(F)(F)F [compound 594]', '> 6.00'),
  ('CCCCCCCCOc1ccc(Nc2nc(Cc3ccc(OC)cc3)cs2)cc1 [compound 640]', '< 5.00'),
  ('CCCCCCCCOc1ccc(Nc2nc(-c3ccc(NC)nc3)cs2)cc1C(F)(F)F [compound 536]', '> 6.00'),
  ('CCCCCOc1ccc(Nc2nc3c(s2)CCc2ccncc2-3)cc1C(F)(F)F [compound 592]', '> 6.00'),
  ('CCCCCCCc1ccc(Nc2nc(-c3ccc(Cl)cc3)cs2)cc1 [compound 567]', '> 6.00'),
  ('CCCCCCCCN(C)c1ccc(Nc2nc(Cc3ccc(F)c(F)c3)cs2)cc1 [compound 612]', '< 5.00');

Now look at this entry.
Item: CCCCCCCCOc1ccc(Nc2nc(-c3sc(-c4cnccn4)nc3C)cs2)cc1C(F)(F)F [compound 590] | pEC50: > 6.00
